# experiment: folding stability dG unfold (combined trypsin and chymotrypsin); higher = more stable
# folding stability dG unfold values compiled below
measured.property: folding stability dG unfold

>>> print(df.to_string())
                              item_sequence            measured_property         result
0  SAGGSAGGSENNIVIKMKMEMPNQEMKFRFPIPADKLKDALKEGKPIKFPNGMNVRITEIIPVSAGGSAGGS [r12_432_TrROS]  folding stability dG unfold  < -1 kcal/mol
1  SAGGSAGGSAMVTVTILSEDTTDSPRTYTVLFPAEGKALPLPFPADASEAEVRARALELLASAGGSAGGSAG [r3_142_JUSTAS]  folding stability dG unfold  < -1 kcal/mol
2  SAGGSAGGSAGGPMYTVHTETFTTLEPGAGKRIVTTRTTNPATGATATTTTVIPLEPEALSAGGSAGGSAGG [r17_153_JUSTAS]  folding stability dG unfold  < -1 kcal/mol

###

# experiment: folding stability dG unfold from trypsin proteolysis; higher = more stable
We use 2 kcal/mol as the dividing line for folding stability dG unfold: on or above the line is fulfilled, below is not fulfilled.

>>> df
                              item_sequence    group_label
0  SMPTLKITIEKKLPNGEKKKIEIEISLEELLKEARKKKGLESEEEAREALAKELAEKLKEEGYKVKIEPVSA [r9_868_TrROS_Hall]  not fulfilled
1  EAFEKAIEAAIEAAEKGEKETEITLPLPDGKAIRVHATVEVKDGKPVRVDIHVELYGPNNVPYPFTLTITAS [r1_254_TrMRF]      fulfilled
2  SAGMTYTEKVFTSEVTLPEIGAKITITTTVKTPPSGETEPTVEVTFDLPETASEEVVKAVLEELNIPVESAG [r5_486_JUSTAS]  not fulfilled
3  SAGGEMVEIVVKFKTKEELEAAIRAALPPGATVEVTVEEKDGELYLTITVPKENAERLREALKKALESAGGS [r16_43_TrROS_Hall]      fulfilled
4  SAGGKTIEVEIVVPPDMTPEEVAARLAAALPPGAKIRVEEVREVTGPDGRKYRIFKVTIYDEKTGEPLSAGG [r13_12_TrROS_Hall]      fulfilled

###

# experiment: folding stability dG unfold from trypsin proteolysis; higher = more stable
measured.property: folding stability dG unfold (kcal/mol)

>>> df
                              item_sequence  quantitative_result
0  SAGGMYLYKINIKNENEEFFLPILAPEEDEEKVEELAKEISIKLGVKPENIKIEKIEKILGPNGIPVSAGGS [r16_650_TrMRF]                 1.74
1  SAGGGLPASDPDVTATTETFTVTYTEATPEGNPVTTTTTTTVTTYTAPDGAVTTTTTTTSTTVTPASTSAGG [r13_51_JUSTAS]                  1.7
2  SMPVGVEELAERLAEEIEKELSEKTGVPVKVEKITVEEDPATGTVTVTITLYLPDGKKIREESLTVPVLESA [r9_60_JUSTAS]                 1.59
3  SAGGSSSSLIGEIKLPSNVTIKIERSSKGVRTAVVTFPETGKVVTLPLDPNVSIEEIIEKVKEIVEKKSAGG [r13_624_JUSTAS]                 2.06
4  SAGGSAGGSAGGSMLVELDENGKTLTIYDEETQELIEVEVEPAPPVEETVTEVSEEELKSAGGSAGGSAGGS [r4_56_TrROS_Hall]                0.666
5  SAGGSAGGSAMSEEERRRRAEEERRKKPPVFKITEITVERDEDGNLRVTFRLEDGSTVTIELSAGGSAGGSA [r18_423_TrROS_Hall]                 1.89
6  SAGGSAGGMLPAEELADYLEKNPGIEIEDIEPPDPGYITVKIKFPRPDPNGEKHKVEVTIQFPVSAGGSAGG [r6_154_TrROS]                 1.91
7  KIVILEPGEEAELPGVKVIPVDGLRIREVEVNGKKILVIEMSEEEIENGNEEELEKLRELAEELGADEVILS [r1_438_TrROS_Hall]                 1.13

Source listed as the supplement of paper PMC12764529.
